target: human plasmin (human, UniProt P00747 97-810, limits assumed); experiment: plasmin amidolytic activity inhibition, S-2251 substrate
Sequence (P00747 97-810 limits assumed): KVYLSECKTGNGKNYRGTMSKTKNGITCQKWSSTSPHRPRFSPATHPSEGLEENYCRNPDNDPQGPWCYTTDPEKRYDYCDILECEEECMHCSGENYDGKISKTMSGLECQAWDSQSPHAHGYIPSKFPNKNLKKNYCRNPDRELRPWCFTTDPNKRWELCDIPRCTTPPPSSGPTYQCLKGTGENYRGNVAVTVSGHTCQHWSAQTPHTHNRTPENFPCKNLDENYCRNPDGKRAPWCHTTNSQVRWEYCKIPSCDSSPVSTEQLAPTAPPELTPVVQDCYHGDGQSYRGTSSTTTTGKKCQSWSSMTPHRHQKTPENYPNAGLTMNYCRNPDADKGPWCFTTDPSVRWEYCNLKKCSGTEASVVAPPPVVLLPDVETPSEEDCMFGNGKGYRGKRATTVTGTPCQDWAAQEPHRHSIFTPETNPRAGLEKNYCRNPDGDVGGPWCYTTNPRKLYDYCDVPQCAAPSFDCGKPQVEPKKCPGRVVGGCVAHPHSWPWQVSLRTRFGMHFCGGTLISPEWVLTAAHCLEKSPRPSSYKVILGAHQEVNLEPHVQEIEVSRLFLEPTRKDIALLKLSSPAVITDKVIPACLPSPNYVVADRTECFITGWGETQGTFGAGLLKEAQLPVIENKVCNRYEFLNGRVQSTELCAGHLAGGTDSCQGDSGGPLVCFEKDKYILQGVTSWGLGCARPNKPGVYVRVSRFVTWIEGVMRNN
pKi: −log10 of the molar value.
Value Type: pKi

Binder	Value Type	Result Number
plasmin-inhibiting polypeptide comprising the amino acid sequence set forth in SEQ ID NO:5 (designed binder, Expressed in E. coli; also called 60A) NAEICLLPLDYGPCRARLLRYYYDRYTQSCRQFLYGGCEGNANNFYTWEACDDACWRIEK	pKi	8.63
plasmin-inhibiting polypeptide comprising the amino acid sequence set forth in SEQ ID NO:3 (designed binder, Expressed in E. coli; also called DM; 60B) NAEICLLPLDTGPCRARLLRYYYDRYTQSCRQFLYGGCEGNANNFYTWEACDDACWRIEK	pKi	9.31
